Each entry below lists one item and its recorded pEC50 value.
biological target: Gastrin/cholecystokinin type B receptor (Homo sapiens, UniProt P32239); experiment: Agonist activity at human CCK2R expressed in human 1321N1 cells assessed as IP1 accumulation after 1 hr by HTRF assay
Sequence (P32239 whole entry): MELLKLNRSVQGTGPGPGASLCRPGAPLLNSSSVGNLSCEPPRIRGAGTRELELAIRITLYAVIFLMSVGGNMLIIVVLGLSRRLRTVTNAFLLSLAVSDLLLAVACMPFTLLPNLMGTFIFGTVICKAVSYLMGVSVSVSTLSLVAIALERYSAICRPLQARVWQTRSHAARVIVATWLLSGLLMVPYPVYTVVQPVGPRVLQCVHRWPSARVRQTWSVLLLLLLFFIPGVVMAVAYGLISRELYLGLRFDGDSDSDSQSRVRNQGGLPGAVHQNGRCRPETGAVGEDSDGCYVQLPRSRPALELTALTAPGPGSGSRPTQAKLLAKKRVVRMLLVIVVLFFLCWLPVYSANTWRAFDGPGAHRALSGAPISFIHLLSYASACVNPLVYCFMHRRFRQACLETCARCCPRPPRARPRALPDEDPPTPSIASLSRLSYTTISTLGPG
Numbered stars: 1 amine (or outer) side, 2 acyl side, 3 side chain; on linkers, the order of the positions; unused ones are H or OH. Square brackets hold non-standard residues; d marks the D form. Peptide text beside a SMILES is read from it. * marks the point of attachment. sY = N[C@@H](Cc1ccc(OS(=O)(=O)O)cc1)C(=O)O; C18 diacid = O=C(O)CCCCCCCCCCCCCCCCC(=O)*; γGlu = O=C(O)[C@H](CCC(=O)[*:2])N[*:1]; Nle = CCCC[C@H](N)C(=O)O; AEEA = NCCOCCOCC(=O)O
Please note pEC50 is a logarithmic value: minus log10 of concentration in mol/L. Answer with that number alone.

Worked examples, 2 molecules total:
The recorded pEC50 for entry CCCC[C@H](NC(=O)[C@H](Cc1ccc(OS(=O)(=O)O)cc1)NC(=O)[C@H](CC(=O)O)NC(=O)COCCOCCNC(=O)COCCOCCNC(=O)CC[C@H](NC(=O)CCCCCCCCCCCCCCCCC(=O)O)C(=O)O)C(=O)NCC(=O)N[C@@H](Cc1c[nH]c2ccccc12)C(=O)N[C@@H](CCC(N)=O)C(=O)N[C@@H](CC(=O)O)C(=O)N[C@@H](Cc1ccccc1)C(N)=O ({C18 diacid-γGlu-AEEA-AEEA}-D[sY][Nle]GWQDF-NH2) equals 9.38

// field: pEC50; key: "CCCC[C@H](NC(=O)[C@H](Cc1c[nH]c2ccccc12)NC(=O)CNC(=O)[C@H](CC(C)C)NC(=O)[C@H](Cc1ccc(OS(=O)(=O)O)cc1)NC(=O)[C@H](CC(=O)O)NC(=O)COCCOCCNC(=O)COCCOCCNC(=O)CC[C@H](NC(=O)CCCCCCCCCCCCCCCCC(=O)O)C(=O)O)C(=O)N(C)[C@H](CC(=O)O)C(=O)N(C)[C@@H](Cc1ccccc1)C(N)=O" ; value = 6.91

Turning now to a further record.
# pEC50 of CCCC[C@H](NC(=O)[C@H](Cc1c[nH]c2ccccc12)NC(=O)[C@H](CCCCN)NC(=O)[C@H](CCCC)NC(=O)[C@H](Cc1ccc(OS(=O)(=O)O)cc1)NC(=O)[C@H](CC(=O)O)NC(=O)COCCOCCNC(=O)COCCOCCNC(=O)CC[C@H](NC(=O)CCCCCCCCCCCCCCCCC(=O)O)C(=O)O)C(=O)N[C@@H](CC(=O)O)C(=O)N[C@@H](Cc1ccccc1)C(N)=O ({C18 diacid-γGlu-AEEA-AEEA}-D[sY][Nle]KW[Nle]DF-NH2) = 9.08
